Test system: SK-MEL-5 melanoma
Experiment: NCI tumour cell line growth inhibition, 48 h
// classify(record): look up TGI in ranges bin A = under 3 µM, bin B = from 3 µM up to 30 µM, bin C = 30 µM and over

Could you tell me which band C/C(CCn1[nH]c(=O)ccc1=O)=N\NC(=O)C(=O)NN belongs to?
bin C

Could you tell me which band NC1(c2cc3ccccc3s2)CCCC1 belongs to?
bin C

Could you tell me which band CCC(=O)NC(Nc1cc(C)on1)(C(F)(F)F)C(F)(F)F belongs to?
bin C

Could you tell me which band S=C(N/N=C(/c1ccccc1)c1ccccn1)N(Cc1ccccn1)Cc1ccccn1 belongs to?
bin B

Could you tell me which band c1ccc(NCn2cnc3ccccc32)cc1 belongs to?
bin C

Could you tell me which band S=c1sc2c(n1-c1ccccc1)NC=NC2S (stereo not drawn) belongs to?
bin C

Could you tell me which band Nn1c(-c2ccccc2)n[nH]c1=O belongs to?
bin C

Could you tell me which band O=C(Nc1ccc(Oc2ccc(Nc3nc4ccccc4s3)cc2)cc1)Nc1ccc(Cl)c(C(F)(F)F)c1 belongs to?
bin A

Could you tell me which band C=C(C)CCOC(c1ccccc1)(c1ccccc1)c1ccccc1 belongs to?
bin C

Could you tell me which band COCCOc1ccc(-c2nc3ccc(-c4nc5ccc(N6CCN(C)CC6)cc5[nH]4)cc3[nH]2)cc1 belongs to?
bin A

Could you tell me which band CCN(Cc1ccc(F)cc1)c1cc(Cl)c(CO)c(Cl)c1 belongs to?
bin B

Could you tell me which band COC[C@H]1Cn2cc(-c3nc(Nc4ccnn4C)ncc3C)nc2C(=O)N1Cc1ccc(F)c(F)c1 belongs to?
bin C

Could you tell me which band NC(=O)C(=Cn1c(=S)[nH]c2ccc([N+](=O)[O-])cc21)C(N)=O belongs to?
bin C

Could you tell me which band CN1CC[C@@H](NC(=O)Nc2ccc(C#N)cc2)C[C@@H]1c1nc2ccccc2[nH]1 belongs to?
bin C

Could you tell me which band Cc1cc(C)nc(NS(=O)(=O)c2ccc(NC(=O)c3ccc4nc5ccccc5c(Nc5ccc(S(N)(=O)=O)cc5)c4c3)cc2)n1 belongs to?
bin C

Could you tell me which band Cn1c(=O)c2c(nc3n2CC(C(=O)O)N3)n(C)c1=O (stereo not drawn) belongs to?
bin C

Could you tell me which band Nc1ccccc1SC(CC(=O)c1ccccc1)c1cccc([N+](=O)[O-])c1 (stereo not drawn) belongs to?
bin B

Could you tell me which band CN(C)CCNS(=O)(=O)c1ccc(N)cc1 belongs to?
bin C

Could you tell me which band CCN1C(=O)N(c2ccccc2)C2NC(=S)N(/N=C/C=C/c3ccccc3OC)C21 (stereo not drawn) belongs to?
bin A

Could you tell me which band Cc1cc(-c2nc3ccc(F)cc3s2)ccc1NC(=O)[C@H](C)N belongs to?
bin B

Could you tell me which band O=C(/C=C/c1ccc([N+](=O)[O-])cc1)c1ccc(NCc2nc3ccccc3[nH]2)cc1 belongs to?
bin B

Could you tell me which band CCCCCCCCCCCCC(O)c1ccc(C#CCCCCCCCCCO)o1 (stereo not drawn) belongs to?
bin C

Could you tell me which band O=C(c1ccccn1)C1(N2CCCCC2)CCCCC1 belongs to?
bin C

Could you tell me which band O=C(/C=C/c1ccccc1)C[C@@H](O)C[C@@H]1CC=CC(=O)O1 belongs to?
bin B

Could you tell me which band CCC(=C/[C@H](C)C/C=C/C(C)=C/[C@@H](C)C(=O)[C@@H](C)[C@H](O)[C@@H](C)CC)/C=C/[C@H]1OC(=O)C=C[C@@H]1C belongs to?
bin A

Could you tell me which band Cc1ccccc1C(=N)c1ccccc1Cc1cccc2ccccc12 belongs to?
bin C

Could you tell me which band C(=C(c1ccc(OC2CCCCO2)cc1)c1ccc(OC2CCCCO2)cc1)c1ccccc1 (stereo not drawn) belongs to?
bin A

###

System: ACHN renal
Assay: NCI tumour cell line growth inhibition, 48 h
measurement-name: TGI

Which measured TGI belongs to C=CC[C@H](C[C@H](C[C@H](C[C@H](C[C@H](C[C@H](C[C@H](C[C@H](C[C@H](C[C@H](CCCCC)OC)OC)OC)OC)OC)OC)OC)OC)OC)OC , tested on ACHN renal?
> 100 µM

Which measured TGI belongs to COc1cccc(-c2nc(-c3ccc(NC(=O)OC(C)C)cc3)[nH]c2-c2ccnc(Br)c2)c1 , tested on ACHN renal?
> 100 µM

Which measured TGI belongs to Nc1nc2c(c(-c3cccc(Cl)c3)n1)COC/C2=C\c1cccc(Cl)c1 , tested on ACHN renal?
> 100 µM

Which measured TGI belongs to Cc1ccc(/C=C/C(=O)c2cccc3ccccc23)cc1 , tested on ACHN renal?
30.7 µM

###

Tested on: NCI-H226 lung
Assay: NCI tumour cell line growth inhibition, 48 h
Would you kindly list TGI for each of these compounds?

Look at this compound and give its reported TGI. Cc1ccc(NC(=O)c2ccc(OP(=O)(O)Nc3ccc(C)cc3)cc2)cc1
> 100 µM

Look at this compound and give its reported TGI. C#CCn1c(=O)c2ccccc2n(CC#C)c1=O
> 10 µM

Look at this compound and give its reported TGI. C(=C(c1ccc(OC2CCCCO2)cc1)c1ccc(OC2CCCCO2)cc1)c1ccccc1 (stereo unspecified)
3.17 µM

Look at this compound and give its reported TGI. N#C/C(=C\c1cccc(Cl)c1Cl)c1ccccc1
> 100 µM

Look at this compound and give its reported TGI. c1ccc2c(c1)Cn1c-2nc2ccccc21
> 100 µM

Look at this compound and give its reported TGI. O=C1NC(=NC(CO)Cc2ccccc2)S/C1=C\c1ccc2ncccc2c1 (stereo unspecified)
> 25 µM

###

Test system: NCI-H226 lung
Test: NCI tumour cell line growth inhibition, 48 h
Would you kindly list TGI for each of these compounds?

Look at this compound and give its reported TGI. N#CC(NCc1cccc(CNC(C#N)c2ccccc2)c1)c1ccccc1 (stereo unspecified)
> 100 µM

Look at this compound and give its reported TGI. NS(=O)(=O)c1nnc(NC(=O)Nc2ccc(Cl)c(Cl)c2)s1
65.8 µM

Look at this compound and give its reported TGI. NC1(c2cc3ccccc3s2)CCCC1
> 100 µM

Look at this compound and give its reported TGI. COC(=O)CC(c1ccccc1)C1(c2ccccc2)SCCS1 (stereo unspecified)
> 290 µM

Look at this compound and give its reported TGI. Cc1cc(C)nc(NS(=O)(=O)c2ccc(NC(=O)c3ccc4nc5ccccc5c(Nc5ccc(S(N)(=O)=O)cc5)c4c3)cc2)n1
> 100 µM

Look at this compound and give its reported TGI. Oc1ccc(Cc2cc(Cc3ccc(O)cc3)cc(Cc3ccc(O)cc3)c2)cc1
> 50 µM

Look at this compound and give its reported TGI. CCOC(=O)C1=C(C)N(c2ccc(F)cc2F)[C@]2(C#N)C(O)=C(Cl)C(Cl)=C(O)[C@]12C#N
> 100 µM

Look at this compound and give its reported TGI. COc1ccc(-n2c(C)nc3ccc(NC(=S)Nc4ccccc4)cc3c2=O)cc1
> 100 µM

Look at this compound and give its reported TGI. O=C(CCCSc1nc(-c2ccccc2)cc(-c2ccccc2)n1)NO
9.28 µM

Look at this compound and give its reported TGI. CCCCCCCC/C=C\CCCCCCCCCCCC(=O)O
107 µM

Look at this compound and give its reported TGI. S=C(N/N=C(/c1ccccc1)c1ccccn1)N(Cc1ccccn1)Cc1ccccn1
0.433 µM

Look at this compound and give its reported TGI. COc1nc(NC2OC(COC(C)=O)C(OC(C)=O)C(OC(C)=O)C2OC(C)=O)c2c(OC(C)=O)cc(=O)oc2n1 (stereo unspecified)
> 100 µM

Look at this compound and give its reported TGI. CC(=O)Nn1c(=S)[nH]c2ccccc21
> 100 µM

Look at this compound and give its reported TGI. Cn1ccc2c3c(Oc4ccc(NC(N)=O)cc4)ccnc3ccc21
> 100 µM

Look at this compound and give its reported TGI. COc1cc(-c2ccc3cc(OC)c(OC)c(OC)c3c2)cc(OC)c1OC
> 100 µM

Look at this compound and give its reported TGI. Oc1ccccc1CNCc1nc2ccccc2[nH]1
87.4 µM

Look at this compound and give its reported TGI. Nc1c(S(=O)(=O)O)cc2cc(S(=O)(=O)O)ccc2c1N=Nc1ccc(-c2ccc(N=Nc3c(N)c(S(=O)(=O)O)cc4cc(S(=O)(=O)O)ccc34)c(S(=O)(=O)O)c2)cc1
> 100 µM

Look at this compound and give its reported TGI. Cc1cccc(C)c1NC(=O)CCCC(=O)C1/C(=N/NC(=O)CC#N)CCC/C1=N\NC(=O)CC#N (stereo unspecified)
> 100 µM

Look at this compound and give its reported TGI. COc1cccc(C(=O)NC(c2ccc(C)cc2)c2cc(Cl)c3cccnc3c2O)c1 (stereo unspecified)
2.57 µM

Look at this compound and give its reported TGI. O=C(C1OC1c1ccc(Br)cc1O)C12CC3CC(CC(C3)C1)C2 (stereo unspecified)
> 100 µM

Look at this compound and give its reported TGI. Cc1ccc(/C=C/C(=O)c2cccc3ccccc23)cc1
34.3 µM
